assay info: in vivo
reported conditions: male, Wistar, rat, po, 30 mg/kg
measurement type: AUC (ng·h/mL)
Answers are plain numbers, in ng·h/mL.

Exercise: Would you mind telling me what AUC value was observed for CCCc1nc2c(C)cc(-c3nc4ccccc4n3C)cc2n1Cc1ccc(-c2ccccc2C(=O)O)cc1 [Telmisartan] ?
Key: 15700
